Reported Ki, UniProtKB P47900.

Consider the reported Ki for these compounds:
Compound | Measured on | Ki
Cn1nc(-c2ccccc2)cc1Nc1cccnc1Oc1ccccc1C(C)(C)C | UniProtKB P47900 | > 36000 nM
CN(C)c1ccc(-c2nnc(Nc3cccnc3Oc3ccccc3C(C)(C)C)s2)cc1 | UniProtKB P47900 | 27 nM
CC(C)(C)c1ccccc1Oc1ncccc1Nc1nnc(-c2ccc(C(F)(F)F)cc2)s1 | UniProtKB P47900 | 7 nM
CC(C)(C)c1ccccc1Oc1ncccc1N=C1NCC(c2ccccc2)O1 (stereo not given) | UniProtKB P47900 | 2500 nM
CC(C)(C)c1ccccc1Oc1ncccc1Nc1cc(-c2ccccc2)no1 | UniProtKB P47900 | 23 nM
CC(C)(C)c1ccccc1Oc1ncccc1NC(=O)Nc1ccc(C(F)(F)F)cc1 | UniProtKB P47900 | 15 nM
CN(C)Cc1cccc(-c2nnc(Nc3cccnc3Oc3ccccc3C(C)(C)C)s2)c1 | UniProtKB P47900 | 670 nM
Cn1nc(Nc2cccnc2Oc2ccccc2C(C)(C)C)cc1-c1ccccc1 | UniProtKB P47900 | 45 nM
CC(C)(C)c1ccccc1Oc1ncccc1Nc1cc(-c2ccccc2)n[nH]1 | UniProtKB P47900 | 870 nM

[Q] Tell me measured Ki for CN(C)Cc1ccc(-c2nnc(Nc3cccnc3Oc3ccccc3C(C)(C)C)s2)cc1 please.
[A] 250 nM

---

# Protocol description: Lipophilicity, log P of the compound by HPLC analysis
# Format: physicochemical
Property name: logP
Give bare numbers.

Consider the reported logP for these compounds:
Line notation | logP
CC(C)(C)c1ccccc1Oc1ncccc1Nc1ncc(-c2ccccc2)s1 | 5.98
CC(C)(C)c1ccccc1Oc1ncccc1Nc1nnc(-c2ccccc2)s1 | 5.01

Would you kindly look at the next entry?
[Q] Tell me measured logP for CC(C)(C)c1ccccc1Oc1ncccc1Nc1nnc(-c2ccc(C(F)(F)F)cc2)s1 please.
[A] 6

---

# Protocol description: Solubility of the compound at pH 6.5
# Format: physicochemical
# Measurement conditions: buffer
Property name: solubility

[Q] Tell me measured solubility for CC(C)(C)c1ccccc1Oc1ncccc1Nc1nnc(-c2ccc(C(F)(F)F)cc2)s1 please.
[A] < 1 µg/mL

---

Reported Ki, P2Y purinoceptor 1 (Homo sapiens).
Answers are plain numbers, in nM.

Line notation | Measured on | Observed result
CC(C)(C)c1ccccc1Oc1ncccc1NC(=O)Nc1ccccc1 | P2Y purinoceptor 1 (Homo sapiens) | 41
CC(C)(C)c1ccccc1Oc1ncccc1Nc1nsc(-c2ccccc2)n1 | P2Y purinoceptor 1 (Homo sapiens) | 1500

Please supply Ki for each of the following items, keeping them in order.
1. CC(C)(C)c1ccccc1Oc1ncccc1Nc1ncc(-c2ccccc2)s1
2. CC(C)(C)c1ccccc1Oc1ncccc1Nc1nnc(-c2ccccc2)s1

[A]
1. 15
2. 11

[Q] Tell me measured Ki for CC(C)(C)c1ccccc1Oc1ncccc1Nc1nnc(-c2ccncc2)s1 please.
[A] 275

---

# Protocol description: Plasma protein binding in human
# Type: ADME, cell-free
# Measurement conditions: read-out: PPB (converted)
Property name: fraction unbound
Give bare numbers.

[Q] Tell me measured fraction unbound for CC(C)(C)c1ccccc1Oc1ncccc1NC(=O)Nc1ccc(OC(F)(F)F)cc1 please.
[A] 0.007
